Values were extracted from patent US4755509A.

Target: aldose reductase (Rattus norvegicus)
quantity.name: IC50 (µM)
Could you give me the number in µM? Just the number is fine.

Request the reported IC50 associated with O=C(O)CN1C(=S)COc2ccc(F)cc21 0.086

---

Target: aldose reductase (Rattus norvegicus)
Construct: rat lens homogenate used as a source of enzyme; from tissue; host or cells: rat lens homogenate
Experiment: in vitro inhibition of aldose reductase from rat lens homogenate (DL-glyceraldehyde substrate, NADPH, spectrophotometry at 340 nm)
Type: biochemical
Conditions: concentration 10^-5 mol/liter; read-out: Inhibition relative to the control activity, %
Where a name gives a salt, the structure may show the parent alone.
quantity.name: inhibition at 10 µM (%)
Write the answer as a number in %, unit excluded.

Here is how some compounds turned out for inhibition at 10 µM.
> print(dat)
                                   compound  readout.number
1                 O=C(O)CN1C(=O)CSc2ccccc21              86
2  CC1Sc2ccccc2N(CC(=O)O)C1=S (centres unmarked)              95
3             O=C(O)CN1C(=S)CCc2cc(Cl)ccc21              94

Requested field: inhibition at 10 µM. Item: O=C(O)CN1C(=S)CSc2cc(Cl)c(C(F)(F)F)cc21 74

Fill in the blank: the reported inhibition at 10 µM of O=C(O)CN1C(=O)CNc2ncccc21 [Example 114, hydrochloride] is ____. 86
